Values from the supplement of paper PMC10567573

B1: FBXO34 (parent)
chain: ASSVESTLPVLEASSWKKQVSHDF

- Variants of: B1
- protocol text: protein stability index of a GFP-peptide fusion (GPS, HEK-293T) (PSI 1-6); higher = more stable;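 note: lentivirally expressed fusions sorted by FACS into six bins by GFP to DsRed ratio, PSI derived from sequencing read proportions per bin multiplied by bin number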
- measurement setup: c terminus: a fixed tail appended
readout type: protein stability index
Numbers only.

// below: answered variants
D23P
2.91
S2V
2.92
T7F
2.92
S15T
3.07
S21Q
3.08

# evaluate next
Asked: Need protein stability index of "S2K" , thanks.
Given back: 3.04
